remaining at 5 min for assorted molecules
Experiment Description: In vitro drug metabolism in rat liver extract
Type: in vitro ADME, male Wistar rats
Study Conditions: pH 7.4; 5 min., rat liver extract, 37° C.; read-out: Residual amount of test compound, 5 min.
Your answer should be a plain number; it is taken to be in %.

Example results:
{"columns": ["Molecule", "Unit Spec", "remaining at 5 min"],
 "data": [
  ["Cc1cccc(Cc2ccc(-c3cnn4c(O)ncnc34)cc2)c1", "%", 106],
  ["COc1cc(-c2cnn3c(O)ccnc23)ccc1Sc1ccccc1 [Compound B2, reference compound]", "%", 54.3],
  ["Oc1ncnc2c(-c3ccc(Sc4ccccc4)cc3)cnn12 [Compound A1, reference compound]", "%", 32.3],
  ["COc1cc(-c2cnn3c(O)ncnc23)ccc1Cc1cccc(C)c1", "%", 93],
  ["COc1cccc(Cc2ccc(-c3cnn4c(O)ccnc34)cc2)c1", "%", 88.5],
  ["COc1cccc(Cc2ccc(-c3cnn4c(O)ncnc34)cc2C)c1", "%", 77.6]
]}

Find the recorded remaining at 5 min belonging to COc1ccc(Cc2ccc(-c3cnn4c(O)ncnc34)cc2)cc1 and report it. 96.5

Find the recorded remaining at 5 min belonging to Cc1ccccc1Cc1ccc(-c2cnn3c(O)ncnc23)cc1 and report it. 82.9

Find the recorded remaining at 5 min belonging to Oc1ccnc2c(-c3ccc(Cc4ccccc4)cc3)cnn12 and report it. 81.3

Find the recorded remaining at 5 min belonging to Cc1cc(-c2cnn3c(O)ncnc23)ccc1Sc1ccccc1 [Compound A2, reference compound] and report it. 32.5

Find the recorded remaining at 5 min belonging to Oc1ncnc2c(-c3ccc(Cc4ccccc4)cc3)cnn12 and report it. 92.2

Find the recorded remaining at 5 min belonging to CC(c1ccccc1)c1ccc(-c2cnn3c(O)ncnc23)cc1 (stereo not drawn) and report it. 94.4

Find the recorded remaining at 5 min belonging to COc1cc(-c2cnn3c(O)ncnc23)ccc1Cc1ccccc1 and report it. 56.9

Find the recorded remaining at 5 min belonging to Cc1cc(-c2cnn3c(O)ncnc23)ccc1Cc1ccccc1 and report it. 93.7

Find the recorded remaining at 5 min belonging to COc1cccc(Cc2ccc(-c3cnn4c(O)ncnc34)cc2)c1 and report it. 86.1

Find the recorded remaining at 5 min belonging to COc1cccc(Cc2ccc(-c3cnn4c(O)ncnc34)cc2OC)c1 and report it. 98.3

Find the recorded remaining at 5 min belonging to Cc1cc(-c2cnn3c(O)ccnc23)ccc1Sc1ccccc1 [Compound B1, reference compound] and report it. 46.5

Find the recorded remaining at 5 min belonging to COc1cc(-c2cnn3c(O)ncnc23)ccc1Sc1ccccc1 [Compound A3, reference compound] and report it. 38.3

###

Experiment Description: In vitro drug metabolism in rat liver extract
Assay type: in vitro ADME, male Wistar rats
Study Conditions: pH 7.4; 30 min., rat liver extract, 37° C.; read-out: Residual amount of test compound, 30 min.
Measured Metric: remaining at 0.5 h (%)
Your answer should be a plain number; it is taken to be in %.

Find the recorded remaining at 0.5 h belonging to Oc1ncnc2c(-c3ccc(Sc4ccccc4)cc3)cnn12 [Compound A1, reference compound] and report it. 13.1

Find the recorded remaining at 0.5 h belonging to Oc1ncnc2c(-c3ccc(Cc4ccccc4)cc3)cnn12 and report it. 60.2

Find the recorded remaining at 0.5 h belonging to Oc1ccnc2c(-c3ccc(Cc4ccccc4)cc3)cnn12 and report it. 84.2

Find the recorded remaining at 0.5 h belonging to COc1ccc(Cc2ccc(-c3cnn4c(O)ncnc34)cc2)cc1 and report it. 71.6

Find the recorded remaining at 0.5 h belonging to COc1cc(-c2cnn3c(O)ccnc23)ccc1Sc1ccccc1 [Compound B2, reference compound] and report it. 31.4

Find the recorded remaining at 0.5 h belonging to COc1cc(-c2cnn3c(O)ncnc23)ccc1Sc1ccccc1 [Compound A3, reference compound] and report it. 19.2

Find the recorded remaining at 0.5 h belonging to Cc1cccc(Cc2ccc(-c3cnn4c(O)ncnc34)cc2)c1 and report it. 97.6

Find the recorded remaining at 0.5 h belonging to CC(c1ccccc1)c1ccc(-c2cnn3c(O)ncnc23)cc1 (stereo not drawn) and report it. 68.3

Find the recorded remaining at 0.5 h belonging to COc1cccc(Cc2ccc(-c3cnn4c(O)ncnc34)cc2C)c1 and report it. 62

###

Experiment Description: In vitro drug metabolism in rat liver extract
Assay type: in vitro ADME, male Wistar rats
Study Conditions: pH 7.4; 15 min., rat liver extract, 37° C.; read-out: Residual amount of test compound, 15 min.
remaining at 0.25 h for assorted compounds
Your answer should be a plain number; it is taken to be in %.

Example results:
{"columns": ["Compound", "remaining at 0.25 h [%]"],
 "data": [
  ["COc1ccc(Cc2ccc(-c3cnn4c(O)ncnc34)cc2)cc1 [Example 18]", 86.2],
  ["COc1cc(-c2cnn3c(O)ncnc23)ccc1Cc1cccc(C)c1 [Example 12]", 91.8],
  ["Oc1ccnc2c(-c3ccc(Cc4ccccc4)cc3)cnn12 [Example 2]", 86.1],
  ["Cc1cc(-c2cnn3c(O)ncnc23)ccc1Sc1ccccc1 [Compound A2, reference compound]", 14.8]
]}

Then there is this compound:
Find the recorded remaining at 0.25 h belonging to Oc1ncnc2c(-c3ccc(Cc4ccccc4)cc3)cnn12 [Example 1] and report it. 62.4

###

Experiment Description: In vitro drug metabolism in rat liver extract
Format: in vitro ADME, male Wistar rats
Study Conditions: pH 7.4; 30 min., rat liver extract, 37° C.; read-out: Residual amount of test compound, 30 min.
Procedure: 2. In vitro drug metabolism in rat liver extract The resistance of the compound against metabolic degradation by rat liver extract was investigated. The male Wistar rats (weighing about 200 g) were used after fasting for 24 hours. The rat was sacrificed under ether anesthesia, and the livers were removed and were placed onto the ice. […]
Measured Metric: remaining at 0.5 h (%)
Your answer should be a plain number; it is taken to be in %.

Example results:
{"columns": ["Compound", "Measured Metric", "Unit Spec", "Reading"],
 "data": [
  ["Cc1cc(-c2cnn3c(O)ncnc23)ccc1Cc1ccccc1", "remaining at 0.5 h", "%", 82.7],
  ["Cc1cc(-c2cnn3c(O)ncnc23)ccc1Sc1ccccc1 [Compound A2, reference compound]", "remaining at 0.5 h", "%", 13.7],
  ["COc1cc(-c2cnn3c(O)ncnc23)ccc1Cc1cccc(C)c1", "remaining at 0.5 h", "%", 97.4],
  ["COc1cccc(Cc2ccc(-c3cnn4c(O)ncnc34)cc2)c1", "remaining at 0.5 h", "%", 64.7],
  ["Cc1ccccc1Cc1ccc(-c2cnn3c(O)ncnc23)cc1", "remaining at 0.5 h", "%", 82.5],
  ["COc1cccc(Cc2ccc(-c3cnn4c(O)ccnc34)cc2)c1", "remaining at 0.5 h", "%", 66],
  ["COc1cccc(Cc2ccc(-c3cnn4c(O)ncnc34)cc2OC)c1", "remaining at 0.5 h", "%", 91.5],
  ["Cc1cc(-c2cnn3c(O)ccnc23)ccc1Sc1ccccc1 [Compound B1, reference compound]", "remaining at 0.5 h", "%", 25.1]
]}

Then there is this compound:
Find the recorded remaining at 0.5 h belonging to COc1cc(-c2cnn3c(O)ncnc23)ccc1Cc1ccccc1 and report it. 49.9

###

Experiment Description: In vitro drug metabolism in rat liver extract
Type: in vitro ADME, male Wistar rats
Study Conditions: pH 7.4; half-life in the rat liver extract, 37° C.; read-out: Half-time period
Measured Metric: half-life (min)
Your answer should be a plain number; it is taken to be in min.

Example results:
{"columns": ["Compound", "half-life, min"],
 "data": [
  ["COc1cc(-c2cnn3c(O)ncnc23)ccc1Sc1ccccc1 [Compound A3, reference compound]", 3],
  ["Oc1ncnc2c(-c3ccc(Cc4ccccc4)cc3)cnn12", 45],
  ["COc1cc(-c2cnn3c(O)ccnc23)ccc1Sc1ccccc1 [Compound B2, reference compound]", 6.5]
]}

Then there is this compound:
Find the recorded half-life belonging to Cc1cc(-c2cnn3c(O)ncnc23)ccc1Sc1ccccc1 [Compound A2, reference compound] and report it. 2.5

###

Target Or System: rat prostate androgen receptor (Rattus norvegicus)
Sequence (P15207 whole entry S389L): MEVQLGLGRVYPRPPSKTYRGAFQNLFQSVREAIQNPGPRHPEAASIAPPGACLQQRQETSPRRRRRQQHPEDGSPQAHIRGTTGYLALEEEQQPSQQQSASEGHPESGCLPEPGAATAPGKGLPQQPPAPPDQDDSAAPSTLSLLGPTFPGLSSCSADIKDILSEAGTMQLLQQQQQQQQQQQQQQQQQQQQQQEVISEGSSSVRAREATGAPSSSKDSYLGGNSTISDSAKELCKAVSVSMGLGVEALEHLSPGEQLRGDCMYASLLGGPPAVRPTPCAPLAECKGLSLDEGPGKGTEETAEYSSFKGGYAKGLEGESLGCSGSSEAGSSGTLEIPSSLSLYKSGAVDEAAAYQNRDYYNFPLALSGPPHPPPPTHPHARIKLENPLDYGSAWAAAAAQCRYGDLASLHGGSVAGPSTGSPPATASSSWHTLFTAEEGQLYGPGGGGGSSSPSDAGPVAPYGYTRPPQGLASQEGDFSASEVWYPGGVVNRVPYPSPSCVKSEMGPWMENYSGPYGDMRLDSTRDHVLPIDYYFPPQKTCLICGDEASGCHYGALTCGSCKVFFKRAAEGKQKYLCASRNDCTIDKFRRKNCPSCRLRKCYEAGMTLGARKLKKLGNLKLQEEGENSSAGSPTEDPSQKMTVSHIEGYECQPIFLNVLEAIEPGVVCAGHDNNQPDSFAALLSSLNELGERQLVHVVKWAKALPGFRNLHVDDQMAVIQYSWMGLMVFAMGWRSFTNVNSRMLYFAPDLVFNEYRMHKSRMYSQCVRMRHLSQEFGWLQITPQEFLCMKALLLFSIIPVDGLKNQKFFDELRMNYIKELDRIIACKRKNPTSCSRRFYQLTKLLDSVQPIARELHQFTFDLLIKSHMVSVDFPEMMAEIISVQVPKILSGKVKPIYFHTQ
Study Conditions: 1 nM ^3 H-mibolerone, 20 hours at 0° C., rat ventral prostate cytosol; read-out: Inhibitory activity on mibolerone specific binding [IC50 (M)]
IC50 for assorted molecules
Your answer should be a plain number; it is taken to be in M.

{"columns": ["Molecule", "Target Or System", "IC50 / M"],
 "data": [
  ["Oc1ccnc2c(-c3ccc(Cc4ccc5c(c4)OCO5)cc3)cnn12 [Example 35]", "rat prostate androgen receptor (Rattus norvegicus)", "2.2e-07"],
  ["CC(C)(c1ccccc1)c1ccc(-c2cnn3c(O)ncnc23)cc1 [Example 33]", "rat prostate androgen receptor (Rattus norvegicus)", "1.2e-07"]
]}

Find the recorded IC50 belonging to COc1ccccc1Cc1ccc(-c2cnn3c(O)ncnc23)cc1OC [Example 9] and report it. 9.5e-08

Find the recorded IC50 belonging to COc1cccc(Cc2ccc(-c3cnn4c(O)ncnc34)cc2C)c1 [Example 10] and report it. 1.2e-08

Find the recorded IC50 belonging to Cc1cccc(Cc2ccc(-c3cnn4c(O)ccnc34)cc2C)c1 [Example 30] and report it. 2.5e-08

Find the recorded IC50 belonging to Oc1ncnc2c(-c3ccc(Cc4ccc5c(c4)OCO5)cc3)cnn12 [Example 31] and report it. 7.5e-07
